reported.endpoint: melting point

Examples with answers:
>  <molecule>
O=C(NC[C@@H]1CN2C(=O)C[C@H]2O1)c1cc(F)c(F)cc1F (racemic)

>  <melting point>
76.5 to 78.1 °C

$$$$
>  <molecule>
COc1cc(Cl)cc(COc2cccc(OCc3ccc4ccccc4n3)c2)c1OCC(=O)O

>  <melting point>
185 to 190 °C

$$$$
>  <molecule>
CN1CC(CCCl)c2nc3ccccc3n2C1=O (configuration not stated)

>  <melting point>
88 to 91 °C

$$$$
>  <molecule>
O=C(O)CCCC1CCCNC1 (configuration not stated)

>  <melting point>
208 to 210 °C

$$$$

Looking for the measured melting point of `O=C(c1cc2cc([N+](=O)[O-])ccc2o1)C12CC3CC(CC(C3)C1)C2` , can you help?
151 to 153 °C

melting point for `O=C1NC(=O)c2c1c(I)cc1[nH]c3ccc(O)cc3c21` ?
> 350 °C

# get_value(readout='melting point', item= `C=CC(=O)Nc1cccc2cccnc12` )
76.5 to 78.5 °C

---

Each entry below carries its reported melting point.

Which measured melting point value corresponds to `COc1cc2ncc(C#N)c(Nc3cc(Cl)ccc3O)c2cc1OC` ?
> 250 °C

For `CC(=O)N[C@H]1CC[C@H](CCN2CCC(c3cccc4c3CCO4)CC2)CC1` , what is its reported melting point?
183 °C

---

Property: melting point; scope: individual molecules

Example cases with answers are listed next.
>  <molecule>
CC(=O)NCC1CN(c2cc(F)c(N3CCN(C(=O)COC(=O)c4cccnc4)CC3)c(F)c2)C(=O)O1 (stereo unspecified)

>  <measurement>
213 to 214 °C

$$$$
>  <molecule>
COc1c(OC)c(OC(C)=O)c2ccc(Cl)cc2c1O

>  <measurement>
155 to 156 °C

$$$$

// lookup melting point for COc1ccc(CNc2ncnc3c2ncn3C2OC(CNC(C)=O)C(O)C2O)cc1 (stereo unspecified)
121 to 122 °C

# input molecule: `O=C1NC(=O)c2ccc(I)cc2/C1=C/NCc1ccc(-n2cccc2)c(O)c1` ; wanted: its melting point
230 to 231 °C

Name the reported melting point value associated with the molecule `Cn1nc(Oc2ccc(Cl)c(O)c2)c(Cl)c1C(F)(F)F`
106 to 108 °C

Please report the recorded melting point for `CCCCCCCCCCCOc1cccc(C(=O)O)c1` .
88 °C

---

Measured melting point by item

# example entries with known answers
>  <chemical.structure>
N#CC(N)(N)c1cccnc1

>  <melting point>
158 °C

$$$$
>  <chemical.structure>
O=c1ccc(-c2ccc(C(F)(F)F)cc2)n[nH]1

>  <melting point>
191 to 193 °C

$$$$

Query (molecule): `Cn1nc(C(F)(F)F)c(CS(=O)(=O)C2=NOC(C)(C)C2)c1C#N` ; field requested: melting point
105 to 108 °C

---

Listed compounds paired with reported melting point

>  <compound>
CN(Cc1ccccc1)Cc1nc(-c2ccc(-c3ccccc3)cc2)c[nH]1

>  <reported.endpoint>
melting point

>  <measurement>
106 to 108 °C

$$$$
>  <compound>
CCOC(=O)Cc1cc(-c2ccccc2)nc2ccccc12

>  <reported.endpoint>
melting point

>  <measurement>
180 °C

$$$$
>  <compound>
COc1ccc(NS(=O)(=O)c2ccc([N+](=O)[O-])cc2OC)cc1

>  <reported.endpoint>
melting point

>  <measurement>
180 to 182 °C

$$$$
>  <compound>
COC(=O)[C@H](C)NC(=O)C(=O)Nc1ccccc1C(C)(C)C

>  <reported.endpoint>
melting point

>  <measurement>
60.1 to 62.1 °C

$$$$
>  <compound>
Cc1cccc(C=CCC(C(=O)C=Cc2ccc(Cl)cc2)c2ccccc2)c1 (centres undefined)

>  <reported.endpoint>
melting point

>  <measurement>
89 to 93 °C

$$$$
>  <compound>
NCc1ccc(-c2ccc(N(Cc3ccccc3)Cc3ccccc3)cc2)cc1

>  <reported.endpoint>
melting point

>  <measurement>
122 to 125 °C

$$$$
>  <compound>
Cc1cc(-c2cc(C(F)F)n3ncc(C(=O)Nc4cccc(S(C)(=O)=O)c4)c3n2)ccc1Cl

>  <reported.endpoint>
melting point

>  <measurement>
270 °C

$$$$
>  <compound>
Cc1ccc(S(=O)(=O)N2C(C)CN3C(=O)c4ccccc4C32c2ccc(F)cc2)cc1 (centres undefined)

>  <reported.endpoint>
melting point

>  <measurement>
215 to 217 °C

$$$$

Shifting focus to the compound that follows.
// returns reported melting point for input `Nc1cccc(-c2ccc(CCN3CCN(C(=O)c4ccccc4)CC3)cc2)n1`
125 to 127 °C

---

In this section, each of the compounds is paired with its reported melting point.

Recorded results for 5 compounds are shown here.
>  <compound>
CCOC(=O)c1cc2ccc(SCc3ccc(OC)cc3)cc2nc1Cl

>  <melting point>
110 to 112 °C

$$$$
>  <compound>
CC(C)(O)CCOc1c(-c2ccc(S(N)(=O)=O)cc2)cnn(-c2ccc(F)c(Cl)c2)c1=O

>  <melting point>
59 to 62 °C

$$$$
>  <compound>
C=CCNC(=O)N1CC(Sc2ccc(Cl)cc2)C1

>  <melting point>
88 to 89 °C

$$$$
>  <compound>
CC1CC(C)CN(C(=O)C2Cc3ccccc3N2)C1 (stereo not drawn)

>  <melting point>
131 to 133 °C

$$$$
>  <compound>
CCCN(c1ccncc1)n1cc(C)c2cc(OCc3ccccc3)ccc21

>  <melting point>
165 to 167 °C

$$$$

Name the recorded melting point for `CC1(C)CN(c2ncc(C(=O)N(c3cccc(C(F)(F)F)c3)C3CCCC3)c(N)n2)C(=O)N1` .
135 to 139 °C

Need melting point, item `CCc1c(OCc2ccccc2)nc(OCc2ccccc2)nc1C(=O)c1cc(C)cc(C#N)c1`
123 to 124 °C

Any idea what its melting point is? The compound is `CCOC(=O)Cc1ccc2c(c1)sc1ccc(Cl)cc12`
88 to 90 °C

---

reported.endpoint: melting point

Guide cases for melting point, answers given:
>  <molecule>
Cc1ncccc1NC(=NC#N)NC(NC(=O)Cc1ccc(F)c(F)c1)C(C)(C)C (stereo not drawn)

>  <melting point>
58 to 60 °C

$$$$
>  <molecule>
CCc1nc2c(N)nc3cc(-c4cccnc4)ccc3c2n1CC1CCN(C(=O)OC(C)(C)C)CC1

>  <melting point>
229 to 231 °C

$$$$

Please find the next molecule below.
Requested read-out: melting point. Entry: `COC(=O)C(C)(C)OCC#Cc1cc(Cl)ccc1NS(=O)(=O)c1cc(C)cc(C)c1`
78 to 80 °C

---

reported.endpoint: melting point

Recorded results for 6 molecules are shown here.
>  <molecule>
CCOC(=O)/C=C/c1ccc(OCC(C)(C)O)cc1Oc1ncc(C(F)(F)F)cc1Cl

>  <reported.endpoint>
melting point

>  <measurement>
79 to 83 °C

$$$$
>  <molecule>
CCC(CC)Oc1cc(C)nc(Nc2c(C)cc(C)cc2C)c1C

>  <reported.endpoint>
melting point

>  <measurement>
132 to 133 °C

$$$$
>  <molecule>
CCOC(=O)c1cc(C#N)c(C=O)nc1N1CCCCC1

>  <reported.endpoint>
melting point

>  <measurement>
62 to 64 °C

$$$$
>  <molecule>
N#Cc1ccc(Cl)cc1OCC(O)CNc1ccccc1OC1CC=NNC1=O (configuration not stated)

>  <reported.endpoint>
melting point

>  <measurement>
156 to 158 °C

$$$$
>  <molecule>
Cc1ccc(NC(=O)c2c(Cl)cccc2Cl)c2nccc(N3CCN(C)C3=O)c12

>  <reported.endpoint>
melting point

>  <measurement>
262 to 264 °C

$$$$
>  <molecule>
C=C(CCCC(=O)N1CCC[C@@H](C(=O)OC(C)(C)C)N1)C(=O)O

>  <reported.endpoint>
melting point

>  <measurement>
86 to 88 °C

$$$$

// melting point lookup, key: CC(C)NOP(=O)(O)C(C(C)C)N(CC(=O)OCCCl)C(=O)C(F)(F)F (configuration not stated)
87.5 to 89 °C

Please look up its melting point: `O=C(O)c1cc(F)c2cccnc2c1O`
277 to 279 °C

Look at this molecule and give its reported melting point. `O=CN1CCN(c2nn(-c3ccccc3)c3ccccc23)CC1`
130 to 132 °C

Looking for the measured melting point of COC(=O)C1=C(C#N)NC(C)=C(C(=O)OCC(C)C)C1c1ccccc1C#N (configuration not stated) , can you help?
196 to 198 °C

Give its melting point value. Item: CCC1(CCCN2CCN(c3cccc(Cl)c3)CC2)C(=O)Nc2ccccc21 (configuration not stated)
119 to 120 °C

---

reported.endpoint: melting point

>  <compound>
Cc1ccc(S(=O)(=O)N2[C@@H](C(N)=O)CC[C@H]2c2ccccc2)cc1 (racemic)

>  <reported.endpoint>
melting point

>  <measurement>
130 °C

$$$$
>  <compound>
O=C(NC(=S)NC1CCN(Cc2ccc3ccccc3c2)CC1)c1ccccc1

>  <reported.endpoint>
melting point

>  <measurement>
212 to 214 °C

$$$$

Could you now look at the following compound, please?
Return reported melting point; argument: N#CC1CN1C(=O)CNC=O (configuration not stated)
51 to 56 °C
